System: Writhing test induced by phenyl-benzoquinone
assay-summary: Phenylbenzoquinone writhing test in the rat
Assay type: in vivo
experimental-conditions: Rattus norvegicus, po, 10 min; os, 0.5 mg/kg; read-out: % INHIBI-TION
assay-readout: inhibition in vivo at 0.5 mg/kg (%)
Write it as a number; the unit % goes unstated.

Request the reported inhibition in vivo at 0.5 mg/kg associated with Cc1nn2c(=O)c3c4c(sc3nc2s1)CCC4
15

CCc1nn2c(=O)c3c4c(sc3nc2s1)CCCC4 ?
48

O=c1c2c3c(sc2nc2sc(-c4ccccc4)nn12)CCCC3 ?
27

CCOc1ccccc1-c1nn2c(=O)c3c4c(sc3nc2s1)CCCC4 ?
22

CSc1nn2c(=O)c3c4c(sc3nc2s1)CCCC4 ?
24

src = patent EP0133934A2
